tested system: T1, human EGFRvIII-hFc protein (human, UniProt P00533 25-645)
T1 construct: extracellular domain; made in HEK293 cells, purified on protein A; also called immunogen A; hFc-tagged EGFRvIII protein; not shown: human IgG Fc fragment (hFc) of the pCpC vector
assay remarks: ELISA, coated EGFRvIII-hFc, antibody 1 nM
Hi there, I'd appreciate the recorded OD450 nm for every entry that follows.
Numbers only.

Example entries and their recorded answers appear below.
binder	OD450 nm
Murine anti-51G7 (antibody, V domains shown, murine hybridoma antibody; also called 51G7C2) VH: EVQLQQSGAELVKPGASVKLSCTASGFNIKDFYIHWVKQRTEQGLEWIGRIDPEDGETKYAPKFQDKATIIADTSSNTAYLQLSSLTSEDTAVYYCASSSYYGNNYWGQGTTLTVSS VL: QIVLTQSPAIMSASPGEKVTLTCSASSSVSSNYLYWYQQKPGSSPKLWIYSTSNLASGVPARFSGSGSGTSYSLTISSMEAEDAASYFCHQWSSFPYTFGGGTKLEIK	2.44
Murine anti-75G7 (antibody, V domains shown, murine hybridoma antibody; also called 75G7C6) VH: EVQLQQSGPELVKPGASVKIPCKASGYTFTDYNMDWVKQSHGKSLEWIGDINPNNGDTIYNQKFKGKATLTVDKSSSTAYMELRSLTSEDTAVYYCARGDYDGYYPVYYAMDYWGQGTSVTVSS VL: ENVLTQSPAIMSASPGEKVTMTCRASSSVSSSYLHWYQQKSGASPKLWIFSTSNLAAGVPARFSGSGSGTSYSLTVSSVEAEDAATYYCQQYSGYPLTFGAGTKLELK	0.09

Could you now consider this next binder?
Ask: For the binder shown here, Murine anti-63A10 (antibody, V domains shown, murine hybridoma antibody; also called 63A10A7) VH: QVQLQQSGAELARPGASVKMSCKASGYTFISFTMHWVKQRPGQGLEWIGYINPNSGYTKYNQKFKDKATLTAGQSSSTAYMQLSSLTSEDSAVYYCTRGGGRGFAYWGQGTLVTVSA VL: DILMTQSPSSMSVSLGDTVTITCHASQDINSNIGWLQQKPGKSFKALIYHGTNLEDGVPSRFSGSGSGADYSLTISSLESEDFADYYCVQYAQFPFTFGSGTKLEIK , give the reported OD450 nm.
Result: 3.42
